Target: Peptide 1593 (…) (Mycobacterium tuberculosis)
Assay: indirect ELISA, supernatant on 1 ug/ml coated peptide
Measure: OD450, supernatant 1:810 (OD450)
// units = OD450; emit number, no label

Recorded OD450, supernatant 1:810 for Antibody 135A6-1 (antibody, V domains shown) VH: QSVEESGGRLVTPGTPLTLTCTVSGFSLGNYDISWVRQAPGKGLEWIGVIATVGDTYYASWAKGRFTISKTSATVDLKITSPTTEDTATYFCVRGDSPSTNEIFGLWGQGTLVTVSS VL: AVLTQTPSPVSAAVGGTLTINCQSSRTVYNNICLSWYQQKLGQPPKLLIYGASTLTSGVPSRFRGSGSGTQFTLTINDVQCGDAATYYCAGCFPSTSDMYGFGGGTEVVVK , please? 2.68
